// data source = patent US10464906B2

- testProtocol: Solubility assessment of Form I, gravimetric, slurried 48 h in solvents/solvent mixtures
- Assay type: physicochemical
- details: organic solvent or mixture, thermodynamic from solid; Tert-butyl methyl ether (TBME), 45° C.; read-out: Solubility
readoutType: solubility at 48 h (µg/mL)

1. O=C(CCCCCCNC(=O)c1cnc(N(c2ccccc2)c2ccccc2Cl)nc1)NO [Form I] ... 2000

----------
- testProtocol: Solubility assessment of Form I, gravimetric, slurried 48 h in solvents/solvent mixtures
- Type: physicochemical
- details: thermodynamic from solid; water, temperature not stated; read-out: Solubility (less soluble)
readoutType: solubility at 48 h

1) O=C(CCCCCCNC(=O)c1cnc(N(c2ccccc2)c2ccccc2Cl)nc1)NO [Form I] ... < 1000 µg/mL

----------
- testProtocol: Solubility assessment of Form I, gravimetric, slurried 48 h in solvents/solvent mixtures
- Format: physicochemical
- details: organic solvent or mixture, thermodynamic from solid; Dimethylacetamide (DMA), 15° C.; read-out: Solubility
readoutType: solubility at 48 h

1. O=C(CCCCCCNC(=O)c1cnc(N(c2ccccc2)c2ccccc2Cl)nc1)NO [Form I] ... > 100 mg/mL

----------
- testProtocol: Solubility assessment of Form I, gravimetric, slurried 48 h in solvents/solvent mixtures
- Format: physicochemical
- details: thermodynamic from solid; Water (H2O), 45° C.; read-out: Solubility
readoutType: solubility at 48 h

1) O=C(CCCCCCNC(=O)c1cnc(N(c2ccccc2)c2ccccc2Cl)nc1)NO [Form I] ... < 1000 µg/mL

----------
- testProtocol: Solubility assessment of Form I, gravimetric, slurried 48 h in solvents/solvent mixtures
- Type: physicochemical
- details: organic solvent or mixture, thermodynamic from solid; acetonitrile, temperature not stated; read-out: Solubility (less soluble)
- Experimental: The Solubility of Form I was measured gravimetrically in 15 different solvents and solvent mixtures at 15 and 45° C. About 75 mg of the compound was dispensed in 10 volumes (750 μL) of the solvent/solvent mixture and slurried for 48 h. The vials were centrifuged. The supernatant was collected and left for slow evaporation under vacuum at 45° C. The solids obtained after evaporation were used to determine the solubility of Form I and analyzed by XRPD for any new forms.
readoutType: solubility at 48 h

1. O=C(CCCCCCNC(=O)c1cnc(N(c2ccccc2)c2ccccc2Cl)nc1)NO [Form I] ... < 1000 µg/mL

----------
- testProtocol: Solubility assessment of Form I, gravimetric, slurried 48 h in solvents/solvent mixtures
- Assay type: physicochemical
- details: organic solvent or mixture, thermodynamic from solid; Ethyl acetate (EtOAc), 15° C.; read-out: Solubility
readoutType: solubility at 48 h

1. O=C(CCCCCCNC(=O)c1cnc(N(c2ccccc2)c2ccccc2Cl)nc1)NO [Form I] ... < 1000 µg/mL

----------
- testProtocol: Solubility assessment of Form I, gravimetric, slurried 48 h in solvents/solvent mixtures
- Format: physicochemical
- details: organic solvent or mixture, thermodynamic from solid; MeOH, temperature not stated; read-out: Solubility (freely soluble)
readoutType: solubility at 48 h

1) O=C(CCCCCCNC(=O)c1cnc(N(c2ccccc2)c2ccccc2Cl)nc1)NO [Form I] ... > 100 mg/mL

----------
- testProtocol: Solubility assessment of Form I, gravimetric, slurried 48 h in solvents/solvent mixtures
- Format: physicochemical
- details: organic solvent or mixture, thermodynamic from solid; DCM, temperature not stated; read-out: Solubility (less soluble)
readoutType: solubility at 48 h

1) O=C(CCCCCCNC(=O)c1cnc(N(c2ccccc2)c2ccccc2Cl)nc1)NO [Form I] ... < 1000 µg/mL

----------
- testProtocol: Solubility assessment of Form I, gravimetric, slurried 48 h in solvents/solvent mixtures
- Format: physicochemical
- details: organic solvent or mixture, thermodynamic from solid; Dimethylacetamide (DMA), 45° C.; read-out: Solubility
readoutType: solubility at 48 h

1) O=C(CCCCCCNC(=O)c1cnc(N(c2ccccc2)c2ccccc2Cl)nc1)NO [Form I] ... > 100 mg/mL

----------
- testProtocol: Dynamic vapor sorption (DVS) with post-DVS XRPD
- Type: physicochemical
- details: XRPD of the post-DVS sample
readoutType: Post DVS XRPD (crystalline form after DVS)

1) O=C(CCCCCCNC(=O)c1cnc(N(c2ccccc2)c2ccccc2Cl)nc1)NO [Form III] ... Pattern D,
2) O=C(CCCCCCNC(=O)c1cnc(N(c2ccccc2)c2ccccc2Cl)nc1)NO [Form II] ... Pattern D,
3) O=C(CCCCCCNC(=O)c1cnc(N(c2ccccc2)c2ccccc2Cl)nc1)NO [Form IX] ... Pattern D,

----------
- testProtocol: Solubility assessment of Form I, gravimetric, slurried 48 h in solvents/solvent mixtures
- Type: physicochemical
- details: organic solvent or mixture, thermodynamic from solid; TFE, temperature not stated; read-out: Solubility (freely soluble)
readoutType: solubility at 48 h

1) O=C(CCCCCCNC(=O)c1cnc(N(c2ccccc2)c2ccccc2Cl)nc1)NO [Form I] ... > 100 mg/mL

----------
- testProtocol: Solubility assessment of Form I, gravimetric, slurried 48 h in solvents/solvent mixtures
- Type: physicochemical
- details: organic solvent or mixture, thermodynamic from solid; IPA, temperature not stated; read-out: Solubility (slightly soluble)
readoutType: solubility at 48 h

1) O=C(CCCCCCNC(=O)c1cnc(N(c2ccccc2)c2ccccc2Cl)nc1)NO [Form I] ... ~2000 µg/mL

----------
- testProtocol: Solubility assessment of Form I, gravimetric, slurried 48 h in solvents/solvent mixtures
- Assay type: physicochemical
- details: organic solvent or mixture, thermodynamic from solid; Heptane (HEP), 15° C.; read-out: Solubility
readoutType: solubility at 48 h

1. O=C(CCCCCCNC(=O)c1cnc(N(c2ccccc2)c2ccccc2Cl)nc1)NO [Form I] ... < 1000 µg/mL

----------
- testProtocol: Solubility assessment of Form I, gravimetric, slurried 48 h in solvents/solvent mixtures
- Format: physicochemical
- details: aqueous with cosolvent or surfactant or cyclodextrin, thermodynamic from solid; acetone:H2O (1:1), temperature not stated; read-out: Solubility (moderately soluble)
readoutType: solubility at 48 h

1. O=C(CCCCCCNC(=O)c1cnc(N(c2ccccc2)c2ccccc2Cl)nc1)NO [Form I] ... 10 to 55 mg/mL

----------
- testProtocol: Stability of crystalline forms under dry (vacuum, 45° C.) and humid (RH >95%) conditions, XRPD
- Assay type: physicochemical
- details: dried under vacuum at 45° C.
readoutType: XRPD pattern after drying at 45° C. (under vacuum)

1) O=C(CCCCCCNC(=O)c1cnc(N(c2ccccc2)c2ccccc2Cl)nc1)NO [Form III] ... Pattern D,
2) O=C(CCCCCCNC(=O)c1cnc(N(c2ccccc2)c2ccccc2Cl)nc1)NO [Form II] ... Pattern D,

----------
- testProtocol: Solubility assessment of Form I, gravimetric, slurried 48 h in solvents/solvent mixtures
- Assay type: physicochemical
- details: organic solvent or mixture, thermodynamic from solid; Tert-butyl methyl ether (TBME), 15° C.; read-out: Solubility
readoutType: solubility at 48 h

1) O=C(CCCCCCNC(=O)c1cnc(N(c2ccccc2)c2ccccc2Cl)nc1)NO [Form I] ... < 1000 µg/mL

----------
- testProtocol: Solubility assessment of Form I, gravimetric, slurried 48 h in solvents/solvent mixtures
- Assay type: physicochemical
- details: organic solvent or mixture, thermodynamic from solid; Tetrahydrofuran (THF), 45° C.; read-out: Solubility
readoutType: solubility at 48 h (mg/mL)

1. O=C(CCCCCCNC(=O)c1cnc(N(c2ccccc2)c2ccccc2Cl)nc1)NO [Form I] ... 50

----------
- testProtocol: Solubility assessment of Form I, gravimetric, slurried 48 h in solvents/solvent mixtures
- Assay type: physicochemical
- details: organic solvent or mixture, thermodynamic from solid; Ethanol (EtOH), 45° C.; read-out: Solubility
readoutType: solubility at 48 h (mg/mL)

1. O=C(CCCCCCNC(=O)c1cnc(N(c2ccccc2)c2ccccc2Cl)nc1)NO [Form I] ... 39

----------
- testProtocol: Solubility assessment of Form I, gravimetric, slurried 48 h in solvents/solvent mixtures
- Assay type: physicochemical
- details: organic solvent or mixture, thermodynamic from solid; acetone, temperature not stated; read-out: Solubility (slightly soluble)
readoutType: solubility at 48 h

1. O=C(CCCCCCNC(=O)c1cnc(N(c2ccccc2)c2ccccc2Cl)nc1)NO [Form I] ... ~2000 µg/mL

----------
- testProtocol: Solubility assessment of Form I, gravimetric, slurried 48 h in solvents/solvent mixtures
- Format: physicochemical
- details: organic solvent or mixture, thermodynamic from solid; Isopropanol (IPA), 45° C.; read-out: Solubility
readoutType: solubility at 48 h (mg/mL)

1. O=C(CCCCCCNC(=O)c1cnc(N(c2ccccc2)c2ccccc2Cl)nc1)NO [Form I] ... 12

----------
- testProtocol: Solubility assessment of Form I, gravimetric, slurried 48 h in solvents/solvent mixtures
- Format: physicochemical
- details: organic solvent or mixture, thermodynamic from solid; Ethanol (EtOH), 15° C.; read-out: Solubility
- Protocol: The Solubility of Form I was measured gravimetrically in 15 different solvents and solvent mixtures at 15 and 45° C. About 75 mg of the compound was dispensed in 10 volumes (750 μL) of the solvent/solvent mixture and slurried for 48 h. The vials were centrifuged. The supernatant was collected and left for slow evaporation under vacuum at 45° C. The solids obtained after evaporation were used to determine the solubility of Form I and analyzed by XRPD for any new forms.
readoutType: solubility at 48 h (mg/mL)

1) O=C(CCCCCCNC(=O)c1cnc(N(c2ccccc2)c2ccccc2Cl)nc1)NO [Form I] ... 11
